tested on: Candida albicans; assay: Antifungal activity against Candida albicans MTCC 3018 after 24 hr by microtiter broth dilution method; format: functional; conditions: MTCC 3018, 24 h
EXPERIMENTAL_ENDPOINT: MIC (µg/mL)
Express the result in µg/mL but write the number alone.

SMILES_REPR | MEASUREMENT_UNITS | MIC
CCCCCCCCCC(=O)Oc1ccc(/C=N/Cc2cccnc2)cc1 | µg/mL | 75
CCCCCCCCCCCCCC(=O)Oc1ccc(/C=N/Cc2cccnc2)cc1 | µg/mL | 300
CCCCCCCC(=O)Oc1ccc(/C=N/Cc2cccnc2)cc1 | µg/mL | 300
OC(Cn1cncn1)(Cn1cncn1)c1ccc(F)cc1F | µg/mL | 32

Moving on to the next compound.
Which measured MIC value corresponds to CCCCCCC(=O)Oc1ccc(/C=N/Cc2cccnc2)cc1 ?
75

* * *

// MIC lookup, one value per entry
system: Candida albicans; experiment: Antifungal activity against Candida albicans MTCC 854 after 24 hr by microtiter broth dilution method; assay type: functional; settings: MTCC 854, 24 h
Express the result in µg/mL but write the number alone.

Which measured MIC value corresponds to CCCCCCCCCC(=O)Oc1ccc(/C=N/Cc2cccnc2)cc1 ?
300

Try this compound too: OC(Cn1cncn1)(Cn1cncn1)c1ccc(F)cc1F
32

Try this compound too: CCCCCCC(=O)Oc1ccc(/C=N/Cc2cccnc2)cc1
300

Try this compound too: CCCCCCCCCCCCCC(=O)Oc1ccc(/C=N/Cc2cccnc2)cc1
300

* * *

test system: Staphylococcus aureus; assay: Antibacterial activity against Staphylococcus aureus MLS16 MTCC 2940 after 24 hr by microtiter broth dilution method; assay type: functional; conditions: MLS16 MTCC 2940, 24 h
// MIC lookup, one value per entry
Express the result in µg/mL but write the number alone.

SMILES_REPR | MIC (µg/mL)
CCCCCCCCCCCCCC(=O)Oc1ccc(/C=N/Cc2cccnc2)cc1 | 75
CCCCCCC(=O)Oc1ccc(/C=N/Cc2cccnc2)cc1 | 150
NC[C@@H]1O[C@H](O[C@H]2[C@@H](O)[C@H](O[C@@H]3[C@@H](O)[C@H](N)C[C@H](N)[C@H]3O[C@H]3O[C@H](CN)[C@@H](O)[C@H](O)[C@H]3N)O[C@@H]2CO)[C@H](N)[C@@H](O)[C@@H]1O | 18.8
CCCCCCCCCCCCCCCCCC(=O)Oc1ccc(/C=N/Cc2cccnc2)cc1 | 300
CCCCCCCCCCCC(=O)Oc1ccc(/C=N/Cc2cccnc2)cc1 | 150
CCCCCCCCCC(=O)Oc1ccc(/C=N/Cc2cccnc2)cc1 | 300

Moving on to the next compound.
Which measured MIC value corresponds to CCCCCCCC(=O)Oc1ccc(/C=N/Cc2cccnc2)cc1 ?
300

* * *

// MIC lookup, one value per entry
system: Pseudomonas aeruginosa; assay: Antibacterial activity against Pseudomonas aeruginosa MTCC 2453 after 24 hr by microtiter broth dilution method; type: functional; settings: MTCC 2453, 24 h
Express the result in mg/L but write the number alone.

Which measured MIC value corresponds to CCCCCCC(=O)Oc1ccc(/C=N/Cc2cccnc2)cc1 ?
37.5

* * *

system: Candida albicans; test: Antifungal activity against Candida albicans MTCC 3018 at 1.4 to 300 ug/ml after 24 hr by microtiter broth dilution method; type: functional, organism-based
Calls of active or inactive are those of the source. No cut-off for these calls is given here.

SMILES_REPR | Activity
Oc1ccc(/C=N/Cc2cccnc2)cc1 | inactive
CCCCCCCCCCCCCCCC(=O)Oc1ccc(/C=N/Cc2cccnc2)cc1 | inactive
CCCCCCCCCCCC(=O)Oc1ccc(/C=N/Cc2cccnc2)cc1 | inactive
CCCCCCCCCCCCCCCCCC(=O)Oc1ccc(/C=N/Cc2cccnc2)cc1 | inactive

* * *

system: MDA-MB-231; experiment: Cytotoxicity against Homo sapiens (human) MDA-MB-231 cells by tetrazolium-reduction assay; assay type: functional, cell-based
// IC50 lookup, one value per entry
Express the result in µM but write the number alone.

SMILES_REPR | IC50 / µM
CCCCCCCCCCCCCC(=O)Oc1ccc(/C=N/Cc2cccnc2)cc1 | 26.6
CCCCCCCC(=O)Oc1ccc(/C=N/Cc2cccnc2)cc1 | 15.8
CCCCCCC(=O)Oc1ccc(/C=N/Cc2cccnc2)cc1 | 15
Oc1ccc(/C=N/Cc2cccnc2)cc1 | 16.9
CCCCCCCCCCCC(=O)Oc1ccc(/C=N/Cc2cccnc2)cc1 | 18.9

Notebook: pull reported IC50 for MDA-MB-231, entry CCCCCCCCCCCCCCCCCC(=O)Oc1ccc(/C=N/Cc2cccnc2)cc1
11.5

* * *

tested on: Candida albicans; assay: Antifungal activity against Candida albicans MTCC 3958 after 24 hr by microtiter broth dilution method; type: functional; conditions: MTCC 3958, 24 h
EXPERIMENTAL_ENDPOINT: MIC (µg/mL)
Express the result in µg/mL but write the number alone.

Below are worked cases with known answers.
SMILES_REPR | MIC [µg/mL]
CCCCCCCC(=O)Oc1ccc(/C=N/Cc2cccnc2)cc1 | 150
CCCCCCCCCC(=O)Oc1ccc(/C=N/Cc2cccnc2)cc1 | 300
CCCCCCCCCCCCCC(=O)Oc1ccc(/C=N/Cc2cccnc2)cc1 | 300
CCCCCCC(=O)Oc1ccc(/C=N/Cc2cccnc2)cc1 | 150

Moving on to the next molecule.
Which measured MIC value corresponds to OC(Cn1cncn1)(Cn1cncn1)c1ccc(F)cc1F ?
64

* * *

tested on: Pseudomonas aeruginosa; assay: Antibacterial activity against Pseudomonas aeruginosa MTCC 2453 after 24 hr by microtiter broth dilution method; type: functional; details: MTCC 2453, 24 h
EXPERIMENTAL_ENDPOINT: MIC (µg/mL)
Express the result in µg/mL but write the number alone.

COMPOUND | MEASURED_ON | EXPERIMENTAL_ENDPOINT | MEASUREMENT_UNITS | RECORDED_NUMBER
CCCCCCCCCC(=O)Oc1ccc(/C=N/Cc2cccnc2)cc1 | Pseudomonas aeruginosa | MIC | µg/mL | 75
CCCCCCCCCCCCCCCCCC(=O)Oc1ccc(/C=N/Cc2cccnc2)cc1 | Pseudomonas aeruginosa | MIC | µg/mL | 300
NC[C@@H]1O[C@H](O[C@H]2[C@@H](O)[C@H](O[C@@H]3[C@@H](O)[C@H](N)C[C@H](N)[C@H]3O[C@H]3O[C@H](CN)[C@@H](O)[C@H](O)[C@H]3N)O[C@@H]2CO)[C@H](N)[C@@H](O)[C@@H]1O [FRAMYCETIN] | Pseudomonas aeruginosa | MIC | µg/mL | 18.8

Which measured MIC value corresponds to CCCCCCCC(=O)Oc1ccc(/C=N/Cc2cccnc2)cc1 ?
300

All values here come from ChEMBL document CHEMBL3045812.
